Listed here: items and their measured Stability in AB White, 8° C. (content by LCMSMS).
# Protocol notes: Stability of cannabinoid and Vitamin E components of Beverage 1 (AB White) stored at 8° C. and 21-25° C., LCMSMS over 570 days
# Type: physicochemical
# Test settings: beverage stored at 8° C., day 2
Quantity kind: Stability in AB White, 8° C. (content by LCMSMS) (µg/mL)

{"Molecule": "C=C(C)[C@@H]1CCC(C)=C[C@H]1c1c(O)cc(CCCCC)c(C(=O)O)c1O", "Unit annotation": "µg/mL", "Value": 1.76}
{"Molecule": "CCCCCc1cc(O)c2c(c1)OC1(C)CCC3C1C2C3(C)C (stereo not drawn)", "Unit annotation": "µg/mL", "Value": 0.542}
{"Molecule": "CCCCCc1cc(O)c2c(c1)OC(C)(CCC=C(C)C)C=C2 (stereo not drawn)", "Unit annotation": "µg/mL", "Value": 0.315}
